# Read-out: Tissue Factor, F3 (gene 2152)
# Test name: BSK_CASM3C_TissueFactor: BioMAP Diversity Plus: CASM3C Assay for Tissue Factor Biomarker Activity (AID 2283052);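 further: cell surface tissue factor protein level read by ELISA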
# Condition parameters: primary human coronary artery smooth muscle cells; actives raise or lower the signal
Calls of active or inactive are those of the source. How the source made its calls: active means hit-call score of the fitted dose curve at least 0.9, where 1 is the maximum; inactive means score below 0.9.
Classes used: True for active, False for inactive

| Compound | Label |
| --- | --- |
| C=C(C)C(=O)OCCCCCCCCCCCC | False |
| CCN1CN(CC)CN(CC)C1 | False |
| CC(C)CCCCCOC(=O)CS | False |
| CCCCCCOC(=O)CCCCC(=O)OCCCCCC | False |
| Oc1ccccc1Cc1ccccc1O | False |
| Nc1ccc(C(=O)O)cc1 | False |
| CCc1cccc(C)c1N(C(=O)CS(=O)(=O)O)C(C)COC (stereo unspecified) | False |
| CC1=CC=C(C(C)C)CC1 | False |
| CCC1(C)C(=O)N(Cl)C(=O)N1Cl (stereo unspecified) | False |
| CCCCCCCCCCCC(=O)N(C)CC(=O)O | False |
| CCCCCCCCC(CO)CCCCCC (stereo unspecified) | False |
| CC(C)C(=O)OCCc1ccccc1 | False |
| O=C(O)C(F)(F)C(F)(F)C(F)(F)C(F)(F)C(=O)O | False |
| O=C1CCCCCCCCCCCN1 | False |
| Cc1ccc([N+](=O)[O-])cc1N | False |
| CC(CCC(=O)O)(c1ccc(O)cc1)c1ccc(O)cc1 | False |
| C=CCCCCCCCCC=O | False |
| CCOC(=O)C1=NN(c2ccc(Cl)cc2Cl)C(C)(C(=O)OCC)C1 (stereo unspecified) | False |
| CC=C(C)C=CC=C(C)C | True |
| COC(OC)(C(=O)c1ccccc1)c1ccccc1 | False |
| CCOC(=O)C1=NOC(c2ccccc2)(c2ccccc2)C1 | False |

---

# Test name: ATG_PXRE_CIS: Attagene CIS-FACTORIAL HepG2 Assay for human Pregnane X Receptor Element (PXRE) (AID 2282957)
# Condition parameters: HepG2 Attagene CIS-FACTORIAL PXRE reporter, mRNA; actives raise or lower the signal
Active and inactive are the calls of the source. How the source made its calls: active means hit-call score of the fitted dose curve at least 0.9, where 1 is the maximum; inactive means score below 0.9.
Possible outcomes: active, inactive

| Smiles data | Label |
| --- | --- |
| O=C(Cl)c1c(Cl)c(Cl)c(C(=O)Cl)c(Cl)c1Cl | active |
| CCCC/C=C/C=C\C=O | active |
| CC(=O)c1ccccc1O | inactive |
| CCCCCCCO | active |
| COC(Cc1ccccc1)OC | inactive |

---

# Test name: BSK_4H_SRB: Viability Assessment in the BioMAP Diversity Plus: 4H Assay (AID 2283027);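 further: cells exposed to compound for 24 h before staining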
# Condition parameters: primary human endothelial cells (HUVEC)
Active and inactive are the calls of the source. Rule for the calls: active = hit-call score of the fitted dose curve at least 0.9, where 1 is the maximum; inactive = score below 0.9.
Classes used: t for active, f for inactive

| Molecule | Label |
| --- | --- |
| C=CCCCCCCCCC=O | f |
| CCNc1nc(NC(C)(C)C)nc(OC)n1 | f |
| CCCCCCOC(=O)CCCCC(=O)OCCCCCC | f |
| CC(Cl)COP(=O)(OCC(C)Cl)OCC(C)Cl (stereo not given) | f |
| CCCCCCCCCCCC(C)=O | t |
| Fc1ccc(Br)cc1 | f |
| CCCC(C)C(=O)OCC (stereo not given) | f |
| CCN1CN(CC)CN(CC)C1 | f |
| Nc1nc(N)nc(-c2ccccc2)n1 | f |
| COc1ccc(C(=O)c2ccccc2)c(O)c1 | f |
| CC(CCC(=O)O)(c1ccc(O)cc1)c1ccc(O)cc1 | f |
| C=C(C)C(=O)OCCCCCCCCCCCC | f |
| CCCCCC1=CCCC1=O | f |
| CCCCCCCCCCCC(=O)N(C)CC(=O)O | f |
| CCCCC1C(=O)N(c2ccccc2)N(c2ccccc2)C1=O | f |
| CCCCCCCCC(CO)CCCCCC (stereo not given) | f |
| CC=C(C)C(C)=O | f |
| CC(C)c1cccc(C(C)C)c1N | t |
| Oc1ccc(/C=C/c2cc(O)cc(O)c2)cc1 | t |
| CC/C=C\CCOC(=O)c1ccccc1O | t |
| O=C1CCCCCCCCCCC1 | f |
| CCC1(C)C(=O)N(Cl)C(=O)N1Cl (stereo not given) | f |
| CC1=CC=C(C(C)C)CC1 | f |
| CCCCCCCO | f |
| CC=C(C)C=CC=C(C)C | f |

The reported numbers originate from PubChem BioAssay (EPA / NIEHS).
